test: probe aNog binding to arrayed compounds – biochemical, biotinylated probe, 635/667 nm fluorescence, primary screen (AID 1115); settings: small-molecule microarray, higher = more signal;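 also: probe is biotinylated aNog protein used at 0.15 µg/mL for 1 h at 4 C; z-score combines 667 nm fluorescence of each spot with its signal to noise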
property.measured: composite z-score
Respond with the number and no other words.

Prompt line: Sample C=CCN1Cc2ccccc2C[C@]2(N=C(c3ccc(OCCCO)cc3)O[C@@H]2c2ccccc2)C1=O — what was its composite z-score?
Response line: 0.838

Prompt line: Another: COc1ccc([Si](C)(C)[C@@H]2[C@@H](CCO)O[C@]3(C(=O)N(Cc4cccc(N(C=O)c5ccccc5)c4)c4ccccc43)[C@H]2C)cc1
Response line: -0.0002

Prompt line: Try this molecule too: COCCOC(=O)N1C(=O)[C@@]2(c3cc(C#CCCO)ccc31)[C@H](C(=O)NC[C@H](O)c1ccccc1)[C@H]1C(=O)O[C@H](c3ccccc3)[C@H](c3ccccc3)N1[C@@H]2c1ccc(OCCO)cc1
Response line: -0.456

Prompt line: // repeat for O=C1OCC=C[C@H]2OC34C=CCN(CCN5CCOCC5)C(=O)[C@H]3N(CCCCCCO)C(=O)[C@@H]4[C@@H]12 (some centres not stated) and report
Response line: 0.0395

Prompt line: What would you report for C=C(/C(=C/C[C@@H](OC(C)=O)c1ccc(CO)o1)c1cnc2ccccc2c1)C(C)C ?
Response line: 0.153

New cases:
Prompt line: Which value of composite z-score has been reported for CCCCCN1CC=CC23O[C@@H]4C=CCCOC(=O)C4[C@H]2C(=O)N(CCCO)[C@@H]3C1=O (some centres not stated) in the records?
Response line: -0.0125

Prompt line: Please answer likewise for [N-]=[N+]=NCc1ccccc1C[C@]1(C(=O)NCc2ccccc2)COC(c2ccc(OCCCO)cc2)=N1
Response line: -0.415
